Below, each entry is listed alongside its reported pIC50.
System: 873145-292-R-J1-PDC complex spheroid viability;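 note: spheroids exposed to compounds for 7 days before viability readout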
Assay: Anticancer human tumor 873145-292-R-J1-PDC patient-derived renal clear cell carcinoma cell line growth inhibition [POLQ]
Details: curve of first compound; second compound 3.16 µM
pIC50: −log10 of the molar value.

Consider the worked cases shown below.
>  <compound>
COc1cc2cc(C(=O)CCC(=O)O)sc2cc1OC + COC1C(OC(N)=O)C(O)C(Oc2ccc3c(O)c(NC(=O)c4ccc(O)c(CC=C(C)C)c4)c(=O)oc3c2C)OC1(C)C

>  <pIC50>
< 5.00

$$$$
>  <compound>
CC1COCCN1c1cc(C2(O)CC3CCC(C2)O3)c2cnn(-c3ccn[nH]3)c2n1 (stereo unspecified) + Nc1ccc(C#CCN(C(=O)Cc2ncc(C(F)(F)F)cc2C(F)(F)F)c2ccc(F)cc2)nn1

>  <pIC50>
< 5.00

$$$$
>  <compound>
CCCS(=O)(=O)Nc1ccc(F)c(C(=O)c2c[nH]c3ncc(-c4ccc(Cl)cc4)cc23)c1F + Cc1cccc(N(C)C(=O)C2C(O)CCN2c2nc(C)cc(C(F)(F)F)c2C#N)c1

>  <pIC50>
< 5.00

$$$$
>  <compound>
C#Cc1c(F)ccc2cc(O)cc(-c3ncc4c(N5CC6CCC(C5)N6)nc(OCC56CCCN5CC(F)C6)nc4c3F)c12 (stereo unspecified) + Nc1ccc(C#CCN(C(=O)Cc2ncc(C(F)(F)F)cc2C(F)(F)F)c2ccc(F)cc2)nn1

>  <pIC50>
< 5.00

$$$$
>  <compound>
CC(=O)O[C@H]1C(=O)[C@@]2(C)[C@H]([C@H](OC(=O)c3ccccc3)[C@]3(O)C[C@H](OC(=O)[C@H](O)[C@@H](NC(=O)c4ccccc4)c4ccccc4)C(C)=C1C3(C)C)[C@]1(OC(C)=O)CO[C@@H]1C[C@@H]2O + COC1C(OC(N)=O)C(O)C(Oc2ccc3c(O)c(NC(=O)c4ccc(O)c(CC=C(C)C)c4)c(=O)oc3c2C)OC1(C)C

>  <pIC50>
< 5.52

$$$$

Now examine the next entry.
Q: State, in one line, measured pIC50 of CCc1cc2c(N3CCc4c(cc(Cn5ccnc5)cc4-c4cn(C)nc4C(F)(F)F)C3=O)cc(C)nc2c(OC)n1 + Nc1ccc(C#CCN(C(=O)Cc2ncc(C(F)(F)F)cc2C(F)(F)F)c2ccc(F)cc2)nn1
Ans: < 5.00
